Recorded measurements of pIC50, one per entry
molecular target: hERG-receptor (Homo sapiens (Human), UniProt Q12809)
Sequence (Q12809 whole entry): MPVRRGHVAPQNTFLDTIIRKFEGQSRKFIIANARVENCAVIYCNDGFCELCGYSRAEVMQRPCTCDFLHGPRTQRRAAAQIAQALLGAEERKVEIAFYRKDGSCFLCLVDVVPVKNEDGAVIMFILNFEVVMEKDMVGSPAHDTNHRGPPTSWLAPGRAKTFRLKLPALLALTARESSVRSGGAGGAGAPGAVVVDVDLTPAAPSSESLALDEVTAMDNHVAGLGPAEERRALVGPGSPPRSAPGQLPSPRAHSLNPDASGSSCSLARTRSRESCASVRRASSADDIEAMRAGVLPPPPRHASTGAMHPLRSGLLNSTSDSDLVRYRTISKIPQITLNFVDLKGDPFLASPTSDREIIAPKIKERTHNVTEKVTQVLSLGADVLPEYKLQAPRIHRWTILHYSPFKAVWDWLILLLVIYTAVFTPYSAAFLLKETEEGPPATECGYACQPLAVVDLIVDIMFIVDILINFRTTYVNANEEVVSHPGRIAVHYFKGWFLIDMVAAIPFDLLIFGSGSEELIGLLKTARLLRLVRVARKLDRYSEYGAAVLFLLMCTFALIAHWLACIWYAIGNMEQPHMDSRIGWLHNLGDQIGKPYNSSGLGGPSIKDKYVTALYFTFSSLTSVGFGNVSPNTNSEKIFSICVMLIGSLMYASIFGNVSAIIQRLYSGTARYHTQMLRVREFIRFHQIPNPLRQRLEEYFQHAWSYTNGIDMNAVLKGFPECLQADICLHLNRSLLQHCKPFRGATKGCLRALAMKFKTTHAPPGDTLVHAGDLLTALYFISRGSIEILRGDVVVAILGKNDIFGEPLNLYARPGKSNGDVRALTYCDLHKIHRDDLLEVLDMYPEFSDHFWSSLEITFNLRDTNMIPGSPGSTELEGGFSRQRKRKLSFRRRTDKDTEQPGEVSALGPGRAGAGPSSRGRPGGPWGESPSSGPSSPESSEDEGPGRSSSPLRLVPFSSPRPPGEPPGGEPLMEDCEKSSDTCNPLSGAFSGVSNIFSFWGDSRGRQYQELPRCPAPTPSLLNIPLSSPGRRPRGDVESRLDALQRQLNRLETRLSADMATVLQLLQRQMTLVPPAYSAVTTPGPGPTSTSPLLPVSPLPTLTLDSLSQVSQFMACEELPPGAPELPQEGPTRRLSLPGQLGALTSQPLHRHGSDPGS
pIC50 here is simply -log10 of the concentration when that concentration is written in mol/L.

[[record]]
compound = "OCCc1nccn1Cn1cc(-c2ccc(S(F)(F)(F)(F)F)cc2)nn1"
readout_label = "pIC50"
readout_number = 4.91

[[record]]
compound = "FC(F)Oc1cc(-n2cc(Cn3ccnc3C3CC3)nn2)ccc1Cl"
readout_label = "pIC50"
readout_number = 5.52

[[record]]
compound = "Cc1ncnn1Cc1cn(-c2ccc(Cl)cc2)nn1"
readout_label = "pIC50"
readout_number = 4.31

[[record]]
compound = "Cc1nccn1Cc1cn(-c2ccc(F)c(Cl)c2)nn1"
readout_label = "pIC50"
readout_number = 5.30

[[record]]
compound = "CCc1nccn1Cc1cn(-c2ccc(Cl)c(Cl)c2)nn1"
readout_label = "pIC50"
readout_number = 5.65


Tell me reported pIC50 for Nc1nccn1Cc1cn(-c2cc(F)cc(C(F)F)c2)nn1 , tested with hERG-receptor (Homo sapiens (Human), UniProt Q12809).
5.48

Tell me reported pIC50 for CC(C)c1nccn1Cc1cn(-c2cccc(OC(F)(F)F)c2)nn1 , tested with hERG-receptor (Homo sapiens (Human), UniProt Q12809).
4.89

Tell me reported pIC50 for Fc1ccc(-n2cc(Cn3ccnc3C3CC3)nn2)cc1C(F)F , tested with hERG-receptor (Homo sapiens (Human), UniProt Q12809).
4.80

Tell me reported pIC50 for Cc1cc(-n2cc(Cn3ccnc3CCF)nn2)ccc1Cl , tested with hERG-receptor (Homo sapiens (Human), UniProt Q12809).
4.48

====

target: rat NR1/NR2B receptor (Rattus norvegicus (Rat), UniProt P35439+Q00960); assay: RRNR2BB: inhibition of specific binding to the rat NR1/NR2B receptor; conditions: [3H]-Ifenprodil binding, rat brain membranes, Hill-plot 2-parameter-model
Sequence (Q00960 27-1482, other chains not shown): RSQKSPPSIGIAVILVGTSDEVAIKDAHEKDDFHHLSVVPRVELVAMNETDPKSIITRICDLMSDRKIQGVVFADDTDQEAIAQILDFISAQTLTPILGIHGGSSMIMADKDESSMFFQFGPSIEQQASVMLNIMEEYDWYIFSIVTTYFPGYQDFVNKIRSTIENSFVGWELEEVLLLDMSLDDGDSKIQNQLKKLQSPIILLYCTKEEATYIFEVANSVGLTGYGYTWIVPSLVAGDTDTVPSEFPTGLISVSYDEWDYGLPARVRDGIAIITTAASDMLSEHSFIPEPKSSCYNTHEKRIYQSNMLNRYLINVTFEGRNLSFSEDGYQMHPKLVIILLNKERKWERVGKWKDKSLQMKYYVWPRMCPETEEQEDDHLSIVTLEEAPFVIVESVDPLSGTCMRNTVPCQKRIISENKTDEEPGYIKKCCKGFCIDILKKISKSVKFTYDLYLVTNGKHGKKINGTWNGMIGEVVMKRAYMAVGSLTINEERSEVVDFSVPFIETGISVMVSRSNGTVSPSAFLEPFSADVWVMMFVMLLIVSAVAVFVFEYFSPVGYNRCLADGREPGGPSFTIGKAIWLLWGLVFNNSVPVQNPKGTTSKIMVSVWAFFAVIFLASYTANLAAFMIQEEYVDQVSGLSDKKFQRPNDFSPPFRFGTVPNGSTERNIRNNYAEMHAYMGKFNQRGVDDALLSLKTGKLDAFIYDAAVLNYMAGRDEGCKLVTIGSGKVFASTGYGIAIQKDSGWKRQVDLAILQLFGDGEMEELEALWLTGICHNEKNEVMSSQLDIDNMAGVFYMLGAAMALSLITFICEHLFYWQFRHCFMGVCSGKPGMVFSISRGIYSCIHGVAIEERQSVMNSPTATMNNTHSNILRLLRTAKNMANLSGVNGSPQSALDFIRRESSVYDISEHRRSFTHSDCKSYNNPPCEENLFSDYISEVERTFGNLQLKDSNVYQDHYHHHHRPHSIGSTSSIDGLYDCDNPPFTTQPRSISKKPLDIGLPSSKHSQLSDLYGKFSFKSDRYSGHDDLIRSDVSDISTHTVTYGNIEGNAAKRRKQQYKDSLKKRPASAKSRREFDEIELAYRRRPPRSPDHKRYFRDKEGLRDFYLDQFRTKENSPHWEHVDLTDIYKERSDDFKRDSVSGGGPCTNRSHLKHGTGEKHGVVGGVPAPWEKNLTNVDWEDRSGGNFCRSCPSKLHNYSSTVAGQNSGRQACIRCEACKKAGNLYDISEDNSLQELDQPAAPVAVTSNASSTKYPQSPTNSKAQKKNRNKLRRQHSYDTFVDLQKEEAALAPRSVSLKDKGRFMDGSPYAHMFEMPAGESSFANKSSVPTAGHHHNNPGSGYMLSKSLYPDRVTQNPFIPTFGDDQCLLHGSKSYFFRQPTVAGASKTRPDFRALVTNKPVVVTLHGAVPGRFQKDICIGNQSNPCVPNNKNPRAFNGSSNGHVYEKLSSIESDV
readout-label: pIC50
pIC50 here is simply -log10 of the concentration when that concentration is written in mol/L.

[[record]]
mol = "Cc1nccn1Cc1cn(-c2ccc(F)c(C(C)(F)F)c2)nn1"
system_under_test = "rat NR1/NR2B receptor (Rattus norvegicus (Rat), UniProt P35439+Q00960)"
readout_label = "pIC50"
readout_number = 8.39

[[record]]
mol = "Cn1nccc1Cc1cn(-c2ccc(F)c(Cl)c2)nn1"
system_under_test = "rat NR1/NR2B receptor (Rattus norvegicus (Rat), UniProt P35439+Q00960)"
readout_label = "pIC50"
readout_number = 5.36

[[record]]
mol = "Cc1nccn1Cc1cn(-c2ccc(C(F)(F)F)cc2)nn1"
system_under_test = "rat NR1/NR2B receptor (Rattus norvegicus (Rat), UniProt P35439+Q00960)"
readout_label = "pIC50"
readout_number = 7.34

[[record]]
mol = "CCc1nccn1Cc1cn(-c2ccc(F)c(C(F)F)c2)nn1"
system_under_test = "rat NR1/NR2B receptor (Rattus norvegicus (Rat), UniProt P35439+Q00960)"
readout_label = "pIC50"
readout_number = 8.39

[[record]]
mol = "Cc1cc(-n2cc(Cn3ccnc3C)nn2)ccc1Cl"
system_under_test = "rat NR1/NR2B receptor (Rattus norvegicus (Rat), UniProt P35439+Q00960)"
readout_label = "pIC50"
readout_number = 8.79

[[record]]
mol = "CCc1nccn1Cc1cn(-c2ccc(Cl)c(C(F)F)c2)nn1"
system_under_test = "rat NR1/NR2B receptor (Rattus norvegicus (Rat), UniProt P35439+Q00960)"
readout_label = "pIC50"
readout_number = 8.61

[[record]]
mol = "Cc1nccn1Cc1cn(-c2ccc(Cl)c(C(F)F)c2)nn1"
system_under_test = "rat NR1/NR2B receptor (Rattus norvegicus (Rat), UniProt P35439+Q00960)"
readout_label = "pIC50"
readout_number = 8.47

[[record]]
mol = "CCCc1nccn1Cc1cn(-c2ccc(Cl)c(Cl)c2)nn1"
system_under_test = "rat NR1/NR2B receptor (Rattus norvegicus (Rat), UniProt P35439+Q00960)"
readout_label = "pIC50"
readout_number = 8.12

[[record]]
mol = "OCCc1nccn1Cc1cn(-c2ccc(F)c(C(F)F)c2)nn1"
system_under_test = "rat NR1/NR2B receptor (Rattus norvegicus (Rat), UniProt P35439+Q00960)"
readout_label = "pIC50"
readout_number = 7.84

[[record]]
mol = "CC(F)(F)c1cc(-n2cc(Cn3ccnc3CCO)nn2)ccc1F"
system_under_test = "rat NR1/NR2B receptor (Rattus norvegicus (Rat), UniProt P35439+Q00960)"
readout_label = "pIC50"
readout_number = 8.09


For Cc1nccn1Cc1cn(-c2ccc(Cl)c(OC(F)F)c2)nn1 , what is its reported pIC50?
8.92

For Cc1nccn1Cc1cn(-c2cccc(S(C)(=O)=O)c2)nn1 , what is its reported pIC50?
6.21

For FCCc1nccn1Cc1cn(-c2ccc(Cl)c(OC(F)F)c2)nn1 , what is its reported pIC50?
8.22

For CC(C)c1nccn1Cc1cn(-c2ccc(F)c(C(F)F)c2)nn1 , what is its reported pIC50?
7.96

For Cc1nccn1Cc1cn(-c2ccc(Cl)c(Cl)c2)nn1 , what is its reported pIC50?
8.31

For FC(F)(F)Oc1cccc(-n2cc(Cn3ccnc3C3CC3)nn2)c1 , what is its reported pIC50?
7.46

====

biological target: hERG-receptor (Homo sapiens (Human))
readout-label: pIC50
pIC50 here is simply -log10 of the concentration when that concentration is written in mol/L.

[[record]]
mol = "Clc1ccc(-n2cc(Cn3nc(C4CC4)nc3C3CC3)nn2)cc1"
readout_label = "pIC50"
readout_number = 8.41


Tell me reported pIC50 for CCCc1nccn1Cc1cn(-c2ccc(Cl)c(Cl)c2)nn1 , tested with hERG-receptor (Homo sapiens (Human)).
5.95

Tell me reported pIC50 for Clc1ccc(-n2cc(Cn3cnc(C4CCC4)n3)nn2)cc1 , tested with hERG-receptor (Homo sapiens (Human)).
4.93

Tell me reported pIC50 for OCCc1nccn1Cc1cn(-c2ccc(Cl)c(Cl)c2)nn1 , tested with hERG-receptor (Homo sapiens (Human)).
4.83

Tell me reported pIC50 for COc1cc(F)ccc1-n1cc(Cn2ccnc2C2CC2)nn1 , tested with hERG-receptor (Homo sapiens (Human)).
4.34

Tell me reported pIC50 for CCCCc1nccn1Cc1cn(-c2ccc(F)c(Cl)c2)nn1 , tested with hERG-receptor (Homo sapiens (Human)).
6.27

Tell me reported pIC50 for Cc1cc(-n2cc(Cn3ccnc3C(C)C)nn2)ccc1Cl , tested with hERG-receptor (Homo sapiens (Human)).
5.00

Tell me reported pIC50 for CCCc1ncn(Cc2cn(-c3ccc(Cl)cc3)nn2)n1 , tested with hERG-receptor (Homo sapiens (Human)).
6.52

Tell me reported pIC50 for CC(C)(C)c1nccn1Cc1cn(-c2ccc(Cl)cc2)nn1 , tested with hERG-receptor (Homo sapiens (Human)).
5.45

====

molecular target: rat NR1/NR2B receptor (Rattus norvegicus (Rat), UniProt P35439+Q00960); assay: RRNR2BB: inhibition of specific binding to the rat NR1/NR2B receptor; details: [3H]-Ifenprodil binding, rat brain membranes, Hill-plot 2-parameter-model
pIC50: −log10 of the molar value.
Please note: y applies when pIC50 is 8 or greater, and n applies otherwise.

[[record]]
mol = "CCc1nccn1Cc1cn(-c2ccc(Cl)c(Cl)c2)nn1"
label_value = "y"

[[record]]
mol = "Cc1nccn1Cc1cn(-c2ccc(Cl)cc2)nn1"
label_value = "n"


Confirm if pIC50 reported for the compound Cc1nccn1Cc1cn(-c2cccc(C(F)(F)F)c2)nn1 is 8 or above.
n

Confirm if pIC50 reported for the compound CCCc1ncnn1Cc1cn(-c2ccc(Cl)cc2)nn1 is 8 or above.
n

Confirm if pIC50 reported for the compound FC(F)(F)c1ncn(Cc2cn(-c3ccc(Cl)cc3)nn2)n1 is 8 or above.
n

Confirm if pIC50 reported for the compound FCCc1nccn1Cc1cn(-c2ccc(Cl)c(Cl)c2)nn1 is 8 or above.
n

Confirm if pIC50 reported for the compound FC(F)Oc1cc(-n2cc(Cn3ccnc3C3CC3)nn2)ccc1Cl is 8 or above.
y

Confirm if pIC50 reported for the compound Cc1nncn1Cc1cn(-c2ccc(Cl)cc2)nn1 is 8 or above.
n

====

biological target: rat NR1/NR2B receptor (Rattus norvegicus (Rat), UniProt P35439+Q00960); assay: NR2B binding assay: inhibition of specific [3H]-Ifenprodil binding to the rat NR1/NR2B receptor; settings: rat brain membranes, Hill-plot 2-parameter-model
Recorded measurements of pIC50, one per entry
pIC50 here is simply -log10 of the concentration when that concentration is written in mol/L.

Examples from the recorded data:
[[record]]
mol = "CC(F)(F)c1cc(-n2cc(Cn3ccnc3N)nn2)ccc1F"
readout_number = 9.29

[[record]]
mol = "CCc1nccn1Cc1cn(-c2ccc(F)c(C(F)F)c2)nn1"
readout_number = 8.39

[[record]]
mol = "Clc1ccc(-n2cc(Cn3ccnc3C3CCC3)nn2)cc1Cl"
readout_number = 8.12

[[record]]
mol = "CCCCc1nccn1Cc1cn(-c2ccc(Cl)c(Cl)c2)nn1"
readout_number = 8.16

[[record]]
mol = "CC(C)c1nccn1Cc1cn(-c2ccc(Cl)cc2)nn1"
readout_number = 7.11

[[record]]
mol = "Cc1nccn1Cc1cn(-c2ccc(C(F)(F)F)cc2)nn1"
readout_number = 7.34

[[record]]
mol = "CCc1nccn1Cc1cn(-c2ccc(Cl)c(C)c2)nn1"
readout_number = 8.74

[[record]]
mol = "Cc1ccc(-n2cc(Cn3ccnc3C)nn2)cc1F"
readout_number = 7.58

[[record]]
mol = "Cc1nccn1Cc1cn(-c2ccc(F)c(C(F)F)c2)nn1"
readout_number = 8.42

[[record]]
mol = "FC(F)(F)c1cccc(-n2cc(Cn3ccnc3C3CC3)nn2)c1"
readout_number = 7.04


For FC(F)c1cc(-n2cc(Cn3ccnc3C3CC3)nn2)ccc1Cl , what is its reported pIC50?
7.81

For Cc1nccn1Cc1cn(-c2cc(F)cc(C(F)F)c2)nn1 , what is its reported pIC50?
7.59

For Cc1ncnn1Cc1cn(-c2ccc(Cl)cc2)nn1 , what is its reported pIC50?
4.84

For CC(F)(F)c1cc(-n2cc(Cn3ccnc3CCO)nn2)ccc1F , what is its reported pIC50?
8.09

For FCCc1nccn1Cc1cn(-c2ccc(Cl)c(Cl)c2)nn1 , what is its reported pIC50?
7.58

For Cc1cc(-n2cc(Cn3ccnc3CCO)nn2)ccc1Cl , what is its reported pIC50?
8.16

For FC(F)(F)c1ccc(-n2cc(Cn3ccnc3C3CC3)nn2)cc1 , what is its reported pIC50?
6.76
